system: TK-10 renal; experiment: NCI-60 one-dose screen, 48 h (100 = growth as untreated, 0 = no growth, -100 = all killed); settings: 10 µM unless noted
About 83,000 compounds went through this panel and 20% of them were active in at least one assay; those are over-represented in the sample as a whole.
Endpoint: growth (%)
The response must be a number in % with no trailing unit.

Previously resolved entries follow.
Item under review: "COc1ccc(/C=N\Nc2ccc([N+](=O)[O-])cn2)cc1OC" . Reported growth? -63.4

Item under review: CO[C@H]1/C=C/O[C@@]2(C)Oc3c(C)c(O)c4c(O)c(c(/C=N/N5CCN(C)CC5)c(O)c4c3C2=O)NC(=O)/C(C)=C\C=C\C(C)[C@H](O)[C@@H](C)[C@@H](O)[C@@H](C)[C@@H](OC(C)=O)[C@@H]1C (some centres not stated) . Reported growth? 98.6

Item under review: "CCCCn1c(Cc2ccc(Cl)cc2)nc2cc(OC)c(OC)cc2c1=O" . Reported growth? 102

Item under review: CSc1nc2c(c(=O)[nH]1)C(c1ccc(Cl)cc1)C1=C(N2)/C(=C/c2ccc(Cl)cc2)CNC1 (configuration not stated) . Reported growth? 78.9

---
Item under review: "CN(C)CCCN1c2nc3ccccc3cc2Sc2cc3ccccc3nc21" . Reported growth? -78.2

Item under review: "O=C1CC(C(F)(F)F)=NN1C(=O)c1nn(-c2ccc(Cl)cc2)cc1O" . Reported growth? 122

Item under review: "CC[C@@H]1OC(=O)[C@H](C)[C@@H](O[C@H]2C[C@@](C)(OC)[C@@H](O)[C@H](C)O2)[C@H](C)[C@@H](O[C@@H]2O[C@H](C)C[C@H](N(C)C)[C@H]2O)[C@](C)(O)C[C@@H](C)[C@@H]2N[C@@H](COCCOC)O[C@H]([C@H]2C)[C@]1(C)O" . Reported growth? 119

###

system: BT-549 breast; experiment: NCI-60 one-dose screen, 48 h (100 = growth as untreated, 0 = no growth, -100 = all killed); details: 10 µM unless noted
Compounds without any hit were thinned out: in the full panel of roughly 83,000, 20% have a hit.
Endpoint: growth (%)
The response must be a number in % with no trailing unit.

Item under review: CCCCCCCC/C=C/CCCCCCCC1=NC(C)(C)CN1CC(C)O (stereo unspecified) . Reported growth? 86.7

Item under review: CCC1(c2ccccc2)Oc2ccccc2-n2c(C#N)c3ccccc3c2C1=O (stereo unspecified) . Reported growth? 104

Item under review: "NC(=O)N/N=C/c1ccc(Br)o1" . Reported growth? 104

Item under review: Cc1cc(C)c2c(c1)N1OC(C2)C[C@H]1/C=C/c1ccccc1 (stereo partly specified) . Reported growth? 105

Item under review: "COc1cc(-c2cc(C(=O)Nc3nc4ccccc4s3)nc3cc(-c4ccccc4)nn23)cc(OC)c1OC" . Reported growth? 59.6

Item under review: "C[C@]12CC[C@@H]3c4ccc(O)c([N+](=O)[O-])c4CC[C@H]3[C@@H]1CC[C@@H]2NS(=O)(=O)c1ccc(C(F)(F)F)cc1" . Reported growth? 30.9

###

tested on: SR leukemia; assay: NCI-60 one-dose screen, 48 h (100 = growth as untreated, 0 = no growth, -100 = all killed); conditions: 10 µM unless noted
This is part of a sample that, as a whole, favours compounds with a hit. Of some 83,000 tested, about 20% had one in any assay.
Each record is given true if its reported growth is strictly below 30%. Records at or above 30% are given false.

Here's what some known entries look like.
Quick check: does "Fc1ccc(-c2nc(Nc3ccc(-c4nc5ccccc5[nH]4)cc3)nc(N3CCOCC3)n2)cc1" have growth under 30%? true

Quick check: does "COc1ccc(/C=C(\C#N)c2ccccc2)cc1" have growth under 30%? false

Quick check: does "CCCC[N+](CCCC)=c1ccc2nc3c(C)cc(N(CC)CC)cc3sc-2c1" have growth under 30%? true

Quick check: does "O=Cc1c[nH]c2ccc(NC(=O)OCc3ccccc3)cc12" have growth under 30%? false

Quick check: does "COc1ccc2[nH]cc(/C=C3/C(=O)Nc4ccc(Cl)cc43)c2c1" have growth under 30%? true

Quick check: does "O=C(/C=C/c1ccccc1Cl)c1ccc(O)cc1" have growth under 30%? true

Quick check: does CCC(O)C(C)(C)C (stereo unspecified) have growth under 30%? false

Quick check: does "COc1ccc2[nH]c(-c3ccccc3)cc2c1" have growth under 30%? true

---
Quick check: does Cc1cc(C)c2c(c1)N1OC(C2)C[C@H]1/C=C/c1ccccc1 (stereo partly specified) have growth under 30%? false

Quick check: does "CCc1ccc(CCN2C(=O)c3ccccc3C2=O)nc1" have growth under 30%? false

Quick check: does "O=C(/C(=C/c1cccc([N+](=O)[O-])c1)c1ccccc1)c1ccccc1" have growth under 30%? true

Quick check: does "c1ccc(N2CCN(c3nncc4ccccc34)CC2)nc1" have growth under 30%? false

Quick check: does "COc1ccc(COC(C)=O)cc1" have growth under 30%? false

Quick check: does "COc1ccc(-c2nnc(COc3ccc(NC(=O)Nc4cc(C(F)(F)F)cc(C(F)(F)F)c4)cc3F)o2)cc1" have growth under 30%? true

Quick check: does "O=C(/C=C/c1ccc(O)c(O)c1)N1CCN(c2ccc(Cl)cc2)CC1" have growth under 30%? true

Quick check: does "C/C(=C\CCc1ccoc1)CC/C=C(\C)CCCN1CCC(CO)CC1" have growth under 30%? true

Quick check: does "COC(=O)[C@]12CC[C@@H](C)[C@H](C)[C@@H]1C1=CC[C@@H]3[C@@]4(C)C[C@@H](OC(=O)c5ccco5)[C@H](O)[C@@](C)(CO)[C@@H]4[C@H](O)C[C@@]3(C)[C@]1(C)CC2" have growth under 30%? true

Quick check: does "CCOC(=O)c1ccccc1OC(=O)NNc1ccccc1" have growth under 30%? true

Quick check: does "S=C1SCN(Cc2ccccc2)CN1Cc1ccco1" have growth under 30%? true

Quick check: does "CCCCn1c(Cc2ccc(Cl)cc2)nc2cc(OC)c(OC)cc2c1=O" have growth under 30%? false

###

system: TK-10 renal; experiment: NCI-60 one-dose screen, 48 h; settings: 10 µM unless noted
Compounds without any hit were thinned out: in the full panel of roughly 83,000, 20% have a hit. Calls of active or inactive are those of the source. How the source made its calls: active means growth percent below 10; inactive means the rest.
Your reply should match one of these outcome classes. TRUE for active, FALSE for inactive

Per the assay record, what outcome was assigned to "CCC1=C(c2ccc(OC)cc2)C(C)(C)Oc2cc(O)c(CN3CCCC3)cc21" ? FALSE

Per the assay record, what outcome was assigned to "Cn1c(N)c(N=O)c(=O)[nH]c1=O" ? FALSE

Per the assay record, what outcome was assigned to "Nc1ccc2c(c1)/C(=N/O)c1cc([N+](=O)[O-])ccc1-2" ? FALSE

Per the assay record, what outcome was assigned to Nc1c2ccccc2nc2ccccc12 (tested in a mixture with another compound) ? FALSE

Per the assay record, what outcome was assigned to "CN(C)c1ccc(/C=C\c2ccnc3ccccc23)cc1" ? FALSE

---
Per the assay record, what outcome was assigned to "COc1ccc(-c2cc(C(=O)Nc3nc4cc(C)c(C)cc4s3)nc3cc(-c4ccccc4)nn23)cc1OC" ? FALSE

Per the assay record, what outcome was assigned to "COc1cccc(CCC2C(=O)CCCC2=O)c1" ? FALSE

Per the assay record, what outcome was assigned to "Cc1cc(CC(=O)O)n(C)c1C(=O)c1ccc(Cl)cc1" ? FALSE

Per the assay record, what outcome was assigned to "CN=C(NC)N/N=C(C)\C=N\NC(=NC)NC" ? FALSE

Per the assay record, what outcome was assigned to O=C(C(Br)Br)C(Br)C(Br)c1ccccc1 (configuration not stated) ? FALSE

Per the assay record, what outcome was assigned to "O=C(Nc1cccc(-n2cc(-c3ccncc3)c(-c3ccc(O)c(Cl)c3)n2)c1)Nc1ccc(Cl)c(C(F)(F)F)c1" ? TRUE

Per the assay record, what outcome was assigned to "CCOC(=O)c1cc(-c2cccnc2)nc2c(Cl)cc(Cl)cc12" ? FALSE

Per the assay record, what outcome was assigned to O=C(O)c1ccccc1C(=O)OC1CCCC2CCCC21 (configuration not stated) ? FALSE

Per the assay record, what outcome was assigned to "COc1ccc2c(c1)C(=O)/C(=C/c1ccc([N+](=O)[O-])s1)O2" ? TRUE

Per the assay record, what outcome was assigned to "COc1cc(/C=C/c2nnc(-c3cc(-c4ccccc4)n[nH]3)o2)cc(OC)c1OC" ? FALSE

Per the assay record, what outcome was assigned to "CN1C(=O)/C(=C/c2nc(-c3cccc(F)c3)n3ccccc23)c2ccccc21" ? FALSE

Per the assay record, what outcome was assigned to "Cc1ccsc1/C=C/C1=NCCCN1C" ? FALSE

Per the assay record, what outcome was assigned to "Oc1[nH]c2ccc(Cl)cc2c1/C=c1/ccc2c(c1)N=C(c1ccc(C(F)(F)F)cc1)N=2" ? FALSE

Per the assay record, what outcome was assigned to CC[C@]1(O)CC2CN(CCc3c([nH]c4ccccc34)[C@@](C(=O)OC)(c3cc4c(cc3OC)N(C)[C@H]3[C@@](O)(C(=O)OC)[C@H](OC(C)=O)[C@]5(CC)C=CCN6CC[C@]43[C@@H]65)C2)C1 (some centres not stated) ? FALSE

// data source = PubChem BioAssay (NCI)
